These measurements were taken from patent US4167580A.

Test system: Erythema in Guinea Pigs
Assay: Ultraviolet induced erythema in guinea pigs, topical application
Assay type: in vivo, Albino guinea pigs
Settings: 1% in ethyl alcohol, 1 hour, maximum score 3.0, ethyl alcohol control 2.5
quantityName: Erythema Score (Avg.) 1 Hr.

Below, 3 molecules whose answers are already recorded.
# molecule, testResult
data = [
    ("N#CCC(=N)c1ccccc1 [Benzimidoylacetonitrile, benzimidoylacetonitrile]", 1.0),
    ("CCCCC1C(=O)N(c2ccccc2)N(c2ccccc2)C1=O [Phenylbutazone]", 0.5),
    ("COc1ccc2c(c1)c(CC(=O)O)c(C)n2C(=O)c1ccc(Cl)cc1 [Indomethacin]", 0.7),
]

Next item in the queue.
Request: Quick check: Erythema Score (Avg.) 1 Hr. of CC(=O)Oc1ccccc1C(=O)O [Aspirin] ?
Result: 1.9
